- Test system: Huh7 cells
- EXPERIMENT_SUMMARY: LD content in Huh7 cells pre-treated with insulin, Oil-Red-O staining, absorbance OD 540 nm
- Type: cell-based
- STATED_CONDITIONS: Homo sapiens, Huh-7, Huh7 cells, procedure of Example 3; read-out: LD content inhibition (EC50)
- Description: FIG. 6. […] Spectrophotometric absorbance of untreated or HPN-01-treated Huh7 cells pre-incubated with 1 mM insulin is shown. LD contents were stained using Oil Red O, and measured by determining spectrophotometer absorbance under OD 540 nm. Huh7 cells were mock treated or pre-treated with 1 mM insulin, and subsequently treated with indicated amounted of HPN-01. […]
EXPERIMENTAL_ENDPOINT: EC50 (µM)

CCCNC(=O)c1cc(-c2ccc(Br)cc2)cc(-c2ccc(S(N)(=O)=O)cc2)c1N [HPN-01604] | 1.14
NC(=O)Nc1ccc(-c2cc(-c3ccc(Cl)cc3)cc(C(N)=O)c2NC(=O)CO)cc1 [HPN-01506] | 6.48
COc1ccc(C(=O)OCC#Cc2cc(C(N)=O)c(N)c(-c3ccc(S(N)(=O)=O)cc3)c2)cc1 [HPN-01218] | 0.99
NC(=O)c1cc(-c2ccc(Cl)cc2)cc(-c2ccc(-c3c[nH]nn3)cc2)c1N [HPN-01421] | 0.75
NC(=O)c1cc(-c2ccc(Cl)cc2)cc(-c2ccc(S(N)(=O)=O)cc2)c1NC(=O)c1cccnc1 [HPN-01529] | 1.67

a. CCC(=O)Nc1ccc(-c2cc(-c3ccc(Cl)cc3)cc(C(N)=O)c2N)cc1 [HPN-01408]
b. NC(=O)c1cc(-c2ccc(Cl)cc2)cc(-c2ccc(S(N)(=O)=O)cc2)c1NCCO [HPN-01531]
## Task Input pair: a , b . Output: entry with lower EC50. // output: label of the selected item
## Result a

1. CCCC(=O)Nc1c(C(N)=O)cc(-c2ccc(Cl)cc2)cc1-c1ccc(NC(N)=O)cc1 [HPN-01519]
2. NC(=O)c1cc(Sc2ccc(Cl)cc2)cc(-c2ccc(S(N)(=O)=O)cc2)c1N [HPN-01314]
3. NCC(=O)Nc1c(C(N)=O)cc(-c2ccc(Cl)cc2)cc1-c1ccc(S(N)(=O)=O)cc1 [HPN-01504]
4. Nc1c(C(=O)NC2CC2)cc(-c2ccc(Br)cc2)cc1-c1ccc(S(N)(=O)=O)cc1 [HPN-01606]
5. NC(=O)c1cc(/C=C/C(=O)Nc2ccc(Cl)cc2)cc(-c2ccc(S(N)(=O)=O)cc2)c1N [HPN-01130]
## Task Which order do these items take when sorted by rising EC50? List them. Kindly provide the labels arranged according to the requested ordering.
## Result 5, 4, 3, 1, 2

P. NC(=O)c1cc(C#Cc2ccc(Cl)cc2)cc(-c2ccc(S(N)(=O)=O)cc2)c1N [HPN-01205]
Q. NC(=O)c1cc(/C=C/C(=O)O)cc(-c2ccc(S(N)(=O)=O)cc2)c1N [HPN-01113]
## Task Given the listed records, identify the one among P and Q with higher EC50. // output: label of the selected item
## Result P
(P: 0.52 µM, Q: 0.33 µM)

A. NC(=O)c1cc(-c2ccc(Cl)cc2)cc(Oc2cccc(S(N)(=O)=O)c2)c1N [HPN-01412]
B. CC(C)OC(=O)/C=C/c1cc(C(N)=O)c(N)c(-c2ccc(S(N)(=O)=O)cc2)c1 [HPN-01116]
C. NC(=O)c1cc(-c2ccc(Br)cc2)cc(Nc2ccc(S(N)(=O)=O)cc2)c1N [HPN-01404]
D. Nc1c(-c2ccc(S(N)(=O)=O)cc2)cc(-c2ccc(Br)cc2)cc1N1CCNCC1 [HPN-01622]
## Task List items by EC50 in falling order. Kindly provide the labels arranged according to the requested ordering.
## Result D, A, B, C

A. NC(=O)c1cc(/C=C/c2ccc(Cl)cc2)cc(-c2ccc(S(N)(=O)=O)cc2)c1N [HPN-01107]
B. NC(=O)c1cc(-c2ccc(Cl)cc2)cc(-c2ccc(S(N)(=O)=O)cc2)c1NC(=O)C1CC1 [HPN-01503]
C. CNC(=O)c1cc(-c2ccc(Br)cc2)cc(-c2ccc(S(N)(=O)=O)cc2)c1N [HPN-01602]
## Task List items by EC50 in falling order. Kindly provide the labels arranged according to the requested ordering.
## Result C, A, B

1. NC(=O)c1cc(C#CCOC(=O)c2ccccc2F)cc(-c2ccc(S(N)(=O)=O)cc2)c1N [HPN-01213]
2. Nc1c(C(=O)Nc2cccc(F)c2)cc(-c2ccc(Br)cc2)cc1-c1ccc(S(N)(=O)=O)cc1 [HPN-01614]
3. NC(=O)c1cc(-c2ccc(Cl)cc2)cc(-c2ccc(NC(=O)CO)cc2)c1N [HPN-01419]
## Task Which order do these items take when sorted by rising EC50? List them. Kindly provide the labels arranged according to the requested ordering.
## Result 3, 2, 1
(3: 0.5 µM, 2: 0.82 µM, 1: 1.29 µM)

A. Nc1c(C(=O)Nc2ccc(F)c(F)c2)cc(-c2ccc(Cl)cc2)cc1-c1ccc(S(N)(=O)=O)cc1 [HPN-01615]
B. NC(=O)c1cc(-c2ccc(Cl)cc2)cc(-c2ccc(S(N)(=O)=O)cc2)c1NC(=O)CO [HPN-01502]
## Task Given the listed records, identify the one among A and B with higher EC50. // output: label of the selected item
## Result A
(A: 1.15 µM, B: 0.79 µM)

P. NC(=O)c1cc(-c2ccc(Cl)cc2)cc(N2CCN(S(N)(=O)=O)CC2)c1N [HPN-01427]
Q. Cc1ccccc1C(=O)OCC#Cc1cc(C(N)=O)c(N)c(-c2ccc(S(N)(=O)=O)cc2)c1 [HPN-01212]
## Task Given the listed records, identify the one among P and Q with higher EC50. // output: label of the selected item
## Result P
(P: 1.11 µM, Q: 0.75 µM)

###

- Test system: Huh7 cells
- EXPERIMENT_SUMMARY: LD content in Huh7 cells pre-treated with insulin, Oil-Red-O staining, absorbance OD 540 nm
- Assay type: cell-based
- STATED_CONDITIONS: Homo sapiens, Huh-7, Huh7 cells, procedure of Example 3; read-out: LD content inhibition (EC50)
EXPERIMENTAL_ENDPOINT: EC50 (nM)

Example results:
COc1ccccc1C(=O)OCC#Cc1cc(C(N)=O)c(N)c(-c2ccc(S(N)(=O)=O)cc2)c1 [HPN-01217] | 180
NC(=O)c1cc(-c2ccc(Br)cc2)cc(-c2ccc(OP(=O)(O)O)cc2)c1N [HPN-01416] | 1510
NC(=O)c1cc(/C=C/c2cccc(Br)c2)cc(-c2ccc(S(N)(=O)=O)cc2)c1N [HPN-01103] | 990
NC(=O)c1cc(-c2ccc(Cl)cc2)cc(Nc2ccc(S(N)(=O)=O)cc2)c1N [HPN-01402] | 600
NC(=O)c1cc(Oc2ccc(Cl)cc2)cc(-c2ccc(S(N)(=O)=O)cc2)c1N [HPN-01313] | 1760
CC(=O)Oc1cccc(/C=C/c2cc(C(N)=O)c(N)c(-c3ccc(S(N)(=O)=O)cc3)c2)c1 [HPN-01110] | 810
CCCCNc1c(C(N)=O)cc(-c2ccc(Cl)cc2)cc1-c1ccc(S(N)(=O)=O)cc1 [HPN-01533] | 480
CCCNC(=O)c1cc(-c2ccc(Cl)cc2)cc(-c2ccc(S(N)(=O)=O)cc2)c1N [HPN-01603] | 2390
NC(=O)c1cc(-c2ccc(Cl)cc2)cc(Sc2cccc(S(N)(=O)=O)c2)c1N [HPN-01414] | 1570
NC(=O)Nc1ccc(-c2cc(-c3ccc(Cl)cc3)cc(C(N)=O)c2NC(=O)CCO)cc1 [HPN-01520] | 2510

1. CC(=O)Oc1ccc(/C=C/c2cc(C(N)=O)c(N)c(-c3ccc(S(N)(=O)=O)cc3)c2)cc1 [HPN-01105]
2. NC(=O)c1cc(C#Cc2cccc(Br)c2)cc(-c2ccc(S(N)(=O)=O)cc2)c1N [HPN-01208]
## Task Given the listed records, identify the one among 1 and 2 with higher EC50. // output: label of the selected item
## Result 2

###

- Test system: SREBP-2
- EXPERIMENT_SUMMARY: SREBP-2 expression in cultured primary human hepatocytes
- Format: cell-based
- STATED_CONDITIONS: Homo sapiens, Hepatocyte, procedure of Example 6, read-out: SREBP-2 mRNA inhibition (EC50)
EXPERIMENTAL_ENDPOINT: EC50 (µM)
Entry rule: numbers only, all in µM.

Example results:
NC(=O)c1cc(/C=C/c2ccccc2Cl)cc(-c2ccc(S(N)(=O)=O)cc2)c1N | 4.67
NC(=O)c1cc(/C=C/C(=O)Nc2ccc(Cl)cc2)cc(-c2ccc(S(N)(=O)=O)cc2)c1N | 1.8
Nc1c(C(=O)Nc2ccsc2)cc(-c2ccc(Cl)cc2)cc1-c1ccc(S(N)(=O)=O)cc1 | 4.31

## Task # query: EC50 | item CC(=O)Oc1cccc(/C=C/c2cc(C(N)=O)c(N)c(-c3ccc(S(N)(=O)=O)cc3)c2)c1 | system: SREBP-2
## Result 3.6
